Provide the recorded growth for the entries that follow.
test system: OVCAR-8 ovarian; experiment: NCI-60 one-dose screen, 48 h (100 = growth as untreated, 0 = no growth, -100 = all killed); details: 10 µM unless noted
Compounds without any hit were thinned out: in the full panel of roughly 83,000, 20% have a hit.
Field format: number, assumed %, no unit text.

Entry C=C(C=O)[C@@H]1CC[C@]2(C)[C@H](C(=O)C=C3[C@H]4C[C@](C)(C(=O)OC)CC[C@]4(C)CC[C@]32C)[C@@]1(C)CCC#N has what growth?
13.5

For CS(=O)(=O)Nc1cc(-c2ccc3ncc(C#N)c(NCc4ccccc4F)c3c2)cnc1Cl then?
7.93

For Cc1cc(C)c2sc(=O)n(Cc3nnc(SCCC(=O)O)o3)c2n1 then?
104

For Cc1ccc(-n2cc(/C=N/NC(=O)c3ccncc3)c(-c3ccc(S(C)(=O)=O)cc3)n2)cc1 then?
98.7

For N/C(=N\C(N)=N\c1nc2ccccc2s1)c1ccc(C(F)(F)F)cc1 then?
55.8

For O=C(CCC(=O)N1CCOCC1)OCCCCCCSc1ccc([N+](=O)[O-])c2nonc12 then?
-6.75

For C=CCn1c(SCC(=O)Nc2ccc(C(=O)/C=C/c3cccc([N+](=O)[O-])c3)cc2)nnc1-c1c[nH]c2ccccc12 then?
90.4

For COc1cc(-c2nn(C(C)(C)C)cc2-c2ccnc(NCCCNS(=O)(=O)c3ccc(Cl)cc3)n2)ccc1Cl then?
73.3

###

test system: A498 renal; assay: NCI-60 one-dose screen, 48 h; settings: 10 µM unless noted
Compounds without any hit were thinned out: in the full panel of roughly 83,000, 20% have a hit. Activity calls are given as the source filed them. Rule for the calls: active = growth percent below 10; inactive = the rest.
// classify into Yes for active, No for inactive

Please share the test call associated with CNc1ncc2cc(-c3ccc(-c4ncccc4F)cc3Cl)c(=O)n(CC3OCC(N)CO3)c2n1 (stereo unspecified) .
Yes

For O=S(=O)(NC1c2ccccc2C[C@H]1O)c1ccc(Cl)cc1Cl (stereo partly specified) then?
No

For COc1c(N2CC3CCCNC3C2)c(F)cc2c(=O)c(C(=O)N/N=C/c3ccc(N(C)C)cc3)cn(C3CC3)c12 (stereo unspecified) then?
No

For Cc1ccc(CSc2nc(-c3ccc(Cl)cc3)c(C#N)c(N3CCNCC3)n2)cc1 then?
No

For CC1(C)CC[C@]23CC[C@]4(C)[C@H](CC[C@@H]5[C@@]6(C)CCCN(CO)C(C)(C)[C@@H]6CC[C@]54C)[C@H]2[C@H]1OC3 then?
No

For N=c1c2cc(-c3ccccc3)oc2ncn1/N=C/c1ccc(Br)cc1 then?
No

For Fc1ccc(-c2cc3nc(C(Cl)Cl)nc(-c4ccco4)n3n2)cc1 then?
Yes

For O=C(CSc1nnc(-c2ccc3nc(-c4ccccc4)[nH]c3c2)o1)Nc1ccc(C(=O)/C=C/c2ccccc2)cc1 then?
No

For O=S(=O)(NCCCNc1nccc(-c2[nH]c(-c3ccccc3)nc2-c2ccc(Cl)c(O)c2)n1)c1cccc2ccccc12 then?
No

For COc1cc(Nc2c(C#N)cnn3cc(-c4cnn(CC(C)(C)O)c4)cc23)ccc1Cl then?
Yes

For N=c1c2cc(-c3ccccc3)oc2ncn1/N=C/c1ccc(Cl)cc1 then?
No

For O=C(CN1CCN(c2cc(=O)n(-c3ccccc3)c3ccccc23)CC1)Nc1nc(-c2ccc(Cl)cc2)cs1 then?
No

For COc1ccc(/C=C/C(=O)c2cccc(NC(=O)CSc3nc4ccccc4c(=O)n3-c3ccccc3)c2)cc1OC then?
No

For C=CCn1c(SCC(=O)Nc2ccc(C(=O)/C=C/c3ccc(Cl)cc3)cc2)nnc1-c1c[nH]c2ccccc12 then?
No

For CCOC(=O)C(=O)/C(=C\c1ccc(Cl)cc1)C(=O)N1C(=S)NC(=O)C1CC(C)C (stereo unspecified) then?
No

For O=C(NCCn1ccnc1)c1ccc(-c2nc3ccc4[nH]ncc4c3c3c2CCCC3)cc1 then?
No

For Fc1ccc(-c2cc3nc(C(Cl)Cl)nc(-c4ccc(F)cc4)n3n2)cc1 then?
Yes

For CC(C)c1ccc(NCc2cn(-c3ccc(C(=O)O)cc3)nc2-c2cc(C(F)(F)F)cc(C(F)(F)F)c2)cc1 then?
No

For NS(=O)(=O)c1ccc(Nc2nc(N/N=C/c3ccc(Cl)cc3)nc(Nc3ccccc3)n2)cc1 then?
No

For COc1cc(Cn2cc3c(c2)-c2onc(CN4CCOCC4)c2CC3)cc(OC)c1OC then?
No

For CC1(C)CC[C@]2(CN)CC[C@]3(C)C(=CC[C@@H]4[C@@]5(C)CCCNC(C)(C)[C@@H]5CC[C@]43C)[C@H]2C1 then?
No

For CC/C(=C/c1cc(OC)ccc1O)c1ccc2cc(OC)ccc2[o+]1 then?
No

For NC(N)=Nc1ccc(Oc2cccc(Nc3cccc(C(F)(F)F)c3)c2)cn1 then?
No

For COc1ccc([C@H]2c3[nH]c4ccccc4c3C[C@H]3C(=O)N(C4CCN(Cc5c(Cl)cccc5Cl)CC4)CC(=O)N23)c(OC)c1 then?
No

For C=CCn1c(SCC(=O)Nc2ccc(C(=O)/C=C/c3cccc([N+](=O)[O-])c3)cc2)nnc1-c1c[nH]c2ccccc12 then?
No

For COc1cc(-c2nc(SCCC(C)C)nc(NNC(=O)c3ccncc3)c2C#N)cc(OC)c1OC then?
No

For O=C(NNc1nc2cc(F)ccc2n2c(CN3CC4CNCC4C3)ccc12)c1cnccn1 (stereo unspecified) then?
No

For Nc1nc(N)c2c(n1)NC(c1ccc(Cl)cc1)CC(c1ccc(Nc3nc(NCCO)nc(N4CCOCC4)n3)cc1)=N2 (stereo unspecified) then?
No

For O=C(CCn1c[n+](CC(=O)c2ccc(F)cc2)c2ccccc21)Nc1cccc2cccnc12 then?
No

For C#CCNC1CCC(c2csc(C#C)n2)=C1C (stereo unspecified) then?
No

For C#CC(=O)N(c1ccc(OC)cc1OC)C(C(=O)NCC(=O)OCC)c1cccs1 (stereo unspecified) then?
No

For Cc1cc(-c2ccc(Cl)cc2)n(Cc2nnc(SCC(=O)Nc3ccc(S(N)(=O)=O)cc3)n2-c2ccc([N+](=O)[O-])cc2)n1 then?
No

For CC(C)(C)c1ccc(C(=O)Nc2nc3ccc(O)cc3s2)cc1 then?
No

For CCN1CCN(Cc2cn(-c3ccc(S(N)(=O)=O)cc3)nn2)CC1 then?
No

For c1cn2c(ccc3nc(-c4cn[nH]c4)c4c(c32)CCCC4)n1 then?
Yes

For N#Cc1cccc(NC(=O)c2cc(-c3ccc(F)cc3F)ccc2O)c1 then?
Yes
